test-system: Thyrotropin-releasing hormone receptor (Homo sapiens) (UniProt P34981)
Sequence (P34981 whole entry, looked up): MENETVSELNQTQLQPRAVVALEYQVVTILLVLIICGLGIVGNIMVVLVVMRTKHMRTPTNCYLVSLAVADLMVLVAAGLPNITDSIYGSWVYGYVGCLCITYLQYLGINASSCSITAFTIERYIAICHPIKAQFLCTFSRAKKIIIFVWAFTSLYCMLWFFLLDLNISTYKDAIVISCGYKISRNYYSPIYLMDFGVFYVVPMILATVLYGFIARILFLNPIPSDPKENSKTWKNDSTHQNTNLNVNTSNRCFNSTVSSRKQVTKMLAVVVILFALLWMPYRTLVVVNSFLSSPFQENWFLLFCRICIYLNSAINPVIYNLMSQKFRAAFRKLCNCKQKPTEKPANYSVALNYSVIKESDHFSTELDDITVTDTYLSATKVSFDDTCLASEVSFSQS
measurement-notes: qHTS assay to identify small molecule agonists of the thyrotropin-releasing hormone receptor (TRHR) signaling pathway (AID 1346891)
measurement-context: TRHR-HEK293 calcium fluorescence, agonist mode; series mostly up to 57.6 µM
The source made the active and inactive calls. The call rests on the fitted dose curve.
Response enum: 1 for active, 0 for inactive

compound=COP(=O)(OC)Oc1ccc([N+](=O)[O-])cc1 qualitative_label=0
compound=Oc1ccc([C@H]2CNCc3c2ccc(O)c3O)cc1O qualitative_label=0
compound="C#CCC1=C(C)C(OC(=O)C2C(C=C(C)C)C2(C)C)CC1=O (configuration not stated)" qualitative_label=0

Query string: Each compound tested received a call. Report the one for C=CC(=C)C .
Result string: 0

Query string: Do the same for CCC[CH2][Sn]([CH2]CCC)([CH2]CCC)[O][Sn]([CH2]CCC)([CH2]CCC)[CH2]CCC please
Result string: 1

Query string: Repeat for the following compound: [O]=[Cr][O][Cr]=[O]
Result string: 0

Query string: What do we get for CCCCCCCc1ccc(O)cc1 ?
Result string: 0

Query string: Ok, now COc1cnc(OC)n2nc(NS(=O)(=O)c3c(OCC(F)F)cccc3C(F)(F)F)nc12
Result string: 0

Query string: Next entry: C[C@]12CC[C@H]3[C@@H](CCC4=CC(=O)CC[C@@H]43)[C@@H]1CC[C@@H]2OC(=O)CCc1ccco1
Result string: 0

Query string: Proceed to C[C@]12C/C(=C/O)C(=O)C[C@@H]1CC[C@@H]1[C@@H]2CC[C@@]2(C)[C@H]1CC[C@]2(C)O
Result string: 0

Query string: Similarly, CSSC ?
Result string: 0

----------
test-system: Aryl hydrocarbon receptor (Homo sapiens) (UniProt P35869)
Sequence (P35869 whole entry, looked up): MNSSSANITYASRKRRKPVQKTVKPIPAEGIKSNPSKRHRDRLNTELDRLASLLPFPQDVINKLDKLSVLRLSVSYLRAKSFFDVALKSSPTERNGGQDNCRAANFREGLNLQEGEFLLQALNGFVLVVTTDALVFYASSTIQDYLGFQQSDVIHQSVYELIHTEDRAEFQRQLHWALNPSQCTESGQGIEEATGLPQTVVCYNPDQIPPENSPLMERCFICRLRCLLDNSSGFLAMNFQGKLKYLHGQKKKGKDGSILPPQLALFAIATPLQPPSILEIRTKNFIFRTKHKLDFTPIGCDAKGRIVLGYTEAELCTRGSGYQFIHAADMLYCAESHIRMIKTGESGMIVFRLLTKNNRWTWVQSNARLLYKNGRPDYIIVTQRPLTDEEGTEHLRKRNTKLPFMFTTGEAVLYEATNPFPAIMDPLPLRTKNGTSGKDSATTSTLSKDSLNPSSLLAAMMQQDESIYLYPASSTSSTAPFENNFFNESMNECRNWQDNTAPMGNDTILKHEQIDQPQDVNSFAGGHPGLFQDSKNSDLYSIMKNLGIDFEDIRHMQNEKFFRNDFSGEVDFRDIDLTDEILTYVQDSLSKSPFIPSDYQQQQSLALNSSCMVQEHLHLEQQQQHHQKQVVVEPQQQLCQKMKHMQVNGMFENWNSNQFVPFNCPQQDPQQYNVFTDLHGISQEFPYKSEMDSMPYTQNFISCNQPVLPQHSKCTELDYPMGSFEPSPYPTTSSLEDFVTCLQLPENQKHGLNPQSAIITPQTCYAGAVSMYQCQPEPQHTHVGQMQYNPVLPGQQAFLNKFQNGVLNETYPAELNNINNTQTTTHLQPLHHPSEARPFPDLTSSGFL
measurement-notes: qHTS assay to identify small molecule that activate the aryl hydrocarbon receptor (AhR) signaling pathway (AID 743085); further: nearly all actives have a fitted effect of over 15% in size;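 on activation: HG2L7.5c1 human HepG2 liver cells with stably integrated DRE-driven firefly reporter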
measurement-context: HepG2 AhR-luc (HG2L7.5c1), luciferase, 24 h; series mostly up to 70.3 µM
Results filed as inconclusive are left out. Active and inactive are the calls of the source. Calls come from the whole dose curve; as a rule, active = well fitted activation curve with a large enough effect in the repeat runs; inconclusive = weak or mixed curves; inactive = no such curve, though single readings can be large or run the other way.
Outcome (select one): active, inactive

Example results:
compound=N#Cc1ccc(N(CC(N)=O)CC(F)(F)F)cc1C(F)(F)F qualitative_label=inactive
compound=CNN qualitative_label=inactive
compound=Brc1ccc(Oc2ccc(Br)cc2Br)c(Br)c1 qualitative_label=inactive
compound="CCC(C)c1cccc(C(C)CC)c1O (stereo not drawn)" qualitative_label=inactive
compound="CC(Cl)CCl (stereo not drawn)" qualitative_label=inactive

Query string: Recorded test outcome, item Nc1c(Cl)c(Cl)c(Cl)c(Cl)c1Cl
Result string: active

Query string: What would you report for CC[C@]1(O)CC[C@H]2[C@@H]3CCC4=CCCC[C@@H]4[C@H]3CC[C@@]21C ?
Result string: inactive

Query string: Can you handle CC1=C2C[C@H]3[C@@H](CC=C4C[C@@H](O)CC[C@@]43C)[C@@H]2CC[C@]12O[C@@H]1C[C@H](C)CN[C@H]1[C@H]2C next?
Result string: inactive

----------
test-system: Estrogen receptor (Homo sapiens) (UniProt P03372)
Sequence (P03372 whole entry, looked up): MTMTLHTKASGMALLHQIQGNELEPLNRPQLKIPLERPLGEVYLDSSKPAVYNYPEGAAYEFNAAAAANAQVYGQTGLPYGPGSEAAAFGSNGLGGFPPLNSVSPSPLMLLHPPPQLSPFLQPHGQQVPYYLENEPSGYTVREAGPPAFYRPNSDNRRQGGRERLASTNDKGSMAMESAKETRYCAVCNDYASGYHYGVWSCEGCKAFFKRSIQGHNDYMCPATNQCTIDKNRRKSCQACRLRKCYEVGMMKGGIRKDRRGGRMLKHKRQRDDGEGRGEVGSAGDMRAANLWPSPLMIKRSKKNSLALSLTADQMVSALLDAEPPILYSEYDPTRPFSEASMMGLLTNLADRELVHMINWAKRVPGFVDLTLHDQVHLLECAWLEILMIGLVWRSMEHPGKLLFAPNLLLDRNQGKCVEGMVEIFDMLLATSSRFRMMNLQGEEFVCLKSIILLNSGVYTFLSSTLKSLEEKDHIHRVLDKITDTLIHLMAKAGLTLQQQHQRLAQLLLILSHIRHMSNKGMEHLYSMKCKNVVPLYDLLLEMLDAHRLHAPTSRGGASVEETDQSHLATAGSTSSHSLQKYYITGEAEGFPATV
measurement-notes: qHTS assay to identify small molecule antagonists of the estrogen receptor alpha (ER-alpha) signaling pathway using the BG1 cell line in the presence of 0.1 nM 17-beta-estradiol (AID 1259244); further: nearly all actives have a fitted effect of over 50% in size
measurement-context: VM7Luc4E2 (BG1) ERE-luciferase, antagonist mode, 0.1 nM E2, 22 h; series mostly up to 92.4 µM
From the text: National Center for Advancing Translational Sciences [NCATS] NIH Chemical Genomics Center [NCGC] U.S. Environmental Protection Agency [EPA] National Institutes of Environmental Health Sciences [NIEHS] National Toxicology Program [NTP] U.S. Food and Drug Administration [FDA] Estrogen receptor (ER), a member of the nuclear hormone receptor plays an important role in development, metabolic homeostasis and reproduction. […]
Records with an inconclusive call do not appear. Calls of active or inactive are those of the source. Calls follow the shape of the dose curve; as a rule, active = well fitted inhibition curve with a large enough effect in the repeat runs; inconclusive = weak or mixed curves; inactive = no such curve, though single readings can be large or run the other way.
A correct response names exactly one class from active, inactive

Query string: Could you check what this test reported for O=[N+]([O-])c1ccccc1-c1ccccc1 ?
Result string: inactive

Query string: Next record, please: Cc1cc2c3c(c1)C(c1ccccc1)=N[C@@H](NC(=O)c1ccncc1)C(=O)N3CC2
Result string: inactive

Query string: Repeat with CC1(C)C(C=C(Cl)Cl)C1C(=O)OC(C#N)c1ccc(F)c(Oc2ccccc2)c1 (centres undefined)
Result string: inactive

Query string: Same again, this time with CN1CCc2cc(Cl)c(O)cc2[C@H]2c3ccccc3CC[C@@H]21
Result string: inactive

Query string: // next record CC(O)C(=O)[O][Hg][c]1ccccc1 (centres undefined)
Result string: active

Value source: PubChem BioAssay (Tox21)
